# Tested on: SETVI, Green foxtail, Setaria viridis, (L.)Beau
# procedure.text: Postemergence herbicidal evaluation (Example 147)
# Format: in vivo
# setup.conditions: rate 0.016 kg/ha, rating scale 0-9, two to three weeks after treatment
Measured Postemergence herbicidal rating SETVI, listed per entry for reference.
endpoint: Postemergence herbicidal rating SETVI

- substance.smiles: "CCN(C)S(=O)(=O)NC(=O)c1cc(-n2c(=O)cc(C(F)(F)F)n(C)c2=O)c(F)cc1Cl"
  assayed.target: "SETVI, Green foxtail, Setaria viridis, (L.)Beau"
  endpoint: "Postemergence herbicidal rating SETVI"
  value.measured: 8.0
- substance.smiles: "COc1ccc(CNS(=O)(=O)NC(=O)c2cc(-n3c(=O)cc(C(F)(F)F)n(C)c3=O)c(F)cc2Cl)cc1"
  assayed.target: "SETVI, Green foxtail, Setaria viridis, (L.)Beau"
  endpoint: "Postemergence herbicidal rating SETVI"
  value.measured: 6.0
- substance.smiles: "Cn1c(C(F)(F)F)cc(=O)n(-c2cc(C(=O)NS(=O)(=O)NCc3cccs3)c(Cl)cc2F)c1=O"
  assayed.target: "SETVI, Green foxtail, Setaria viridis, (L.)Beau"
  endpoint: "Postemergence herbicidal rating SETVI"
  value.measured: 5.0
- substance.smiles: "CCN(CC)S(=O)(=O)NC(=O)c1cc(-n2c(=O)cc(C(F)(F)F)n(C)c2=O)c(F)cc1Cl"
  assayed.target: "SETVI, Green foxtail, Setaria viridis, (L.)Beau"
  endpoint: "Postemergence herbicidal rating SETVI"
  value.measured: 7.0

###

# Test system: AMBEL, Ragweed, Common, Ambrosia artemiisifolia, L.
# procedure.text: Postemergence herbicidal evaluation (Example 147)
# Assay type: in vivo
# setup.conditions: rate 0.032 kg/ha, rating scale 0-9, two to three weeks after treatment

- compound: "COc1cccc(CN(C)S(=O)(=O)NC(=O)c2cc(-n3c(=O)cc(C(F)(F)F)n(C)c3=O)c(F)cc2Cl)c1 [Example 70]"
  Postemergence herbicidal rating AMBEL: 7.0
- compound: "CCN(C)S(=O)(=O)NC(=O)c1cc(-n2c(=O)cc(C(F)(F)F)n(C)c2=O)c(F)cc1Cl [Example 66]"
  Postemergence herbicidal rating AMBEL: 9.0
- compound: "CN(Cc1ccccc1)S(=O)(=O)NC(=O)c1cc(-n2c(=O)cc(C(F)(F)F)n(C)c2=O)c(F)cc1Cl [Example 61]"
  Postemergence herbicidal rating AMBEL: 9.0
- compound: "CN(Cc1cccc(Cl)c1)S(=O)(=O)NC(=O)c1cc(-n2c(=O)cc(C(F)(F)F)n(C)c2=O)c(F)cc1Cl [Example 55]"
  Postemergence herbicidal rating AMBEL: 9.0
- compound: "Cn1c(C(F)(F)F)cc(=O)n(-c2cc(C(=O)NS(=O)(=O)NCc3cccs3)c(Cl)cc2F)c1=O [Example 77]"
  Postemergence herbicidal rating AMBEL: 8.0
- compound: "COc1ccc(CNS(=O)(=O)NC(=O)c2cc(-n3c(=O)cc(C(F)(F)F)n(C)c3=O)c(F)cc2Cl)cc1 [Example 82]"
  Postemergence herbicidal rating AMBEL: 9.0
- compound: "CN(c1ccccc1)S(=O)(=O)NC(=O)c1cc(-n2c(=O)cc(C(F)(F)F)n(C)c2=O)c(F)cc1Cl [Example 73]"
  Postemergence herbicidal rating AMBEL: 9.0

###

# Tested on: AMBEL, Ragweed, Common, Ambrosia artemiisifolia, L.
# procedure.text: Preemergence herbicidal evaluation (Example 148)
# Assay type: in vivo
# setup.conditions: rate 0.125 kg/ha, rating scale 0-9, two to four weeks after treatment
# Protocol: The scale is based upon a visual observation of plant stand, vigor, malformation, size, chlorosis and overall plant appearance as compared with a control. The herbicidal activity of the compounds of the present invention was evaluated by the following tests wherein the seeds of a variety of monocotyledonous and dicotyledonous plants were separately mixed with potting soil and planted on top of approximately one inch of soil in separate pint cups. […]
Measured Preemergence herbicidal rating AMBEL, listed per entry for reference.
endpoint: Preemergence herbicidal rating AMBEL

- compound: "C=CCN(C)S(=O)(=O)NC(=O)c1cc(-n2c(=O)cc(C(F)(F)F)n(C)c2=O)c(F)cc1Cl"
  endpoint: "Preemergence herbicidal rating AMBEL"
  value.measured: 9.0
- compound: "CN(Cc1cccc(Cl)c1)S(=O)(=O)NC(=O)c1cc(-n2c(=O)cc(C(F)(F)F)n(C)c2=O)c(F)cc1Cl"
  endpoint: "Preemergence herbicidal rating AMBEL"
  value.measured: 8.0
- compound: "CN(CCC#N)S(=O)(=O)NC(=O)c1cc(-n2c(=O)cc(C(F)(F)F)n(C)c2=O)c(F)cc1Cl"
  endpoint: "Preemergence herbicidal rating AMBEL"
  value.measured: 9.0
- compound: "C#CCN(C)S(=O)(=O)NC(=O)c1cc(-n2c(=O)cc(C(F)(F)F)n(C)c2=O)c(F)cc1Cl"
  endpoint: "Preemergence herbicidal rating AMBEL"
  value.measured: 2.0
- compound: "CCN(CC)S(=O)(=O)NC(=O)c1cc(-n2c(=O)cc(C(F)(F)F)n(C)c2=O)c(F)cc1Cl"
  endpoint: "Preemergence herbicidal rating AMBEL"
  value.measured: 9.0
- compound: "CN(c1ccccc1)S(=O)(=O)NC(=O)c1cc(-n2c(=O)cc(C(F)(F)F)n(C)c2=O)c(F)cc1Cl"
  endpoint: "Preemergence herbicidal rating AMBEL"
  value.measured: 9.0
- compound: "CNS(=O)(=O)NC(=O)c1cc(-n2c(=O)cc(C(F)(F)F)n(C)c2=O)c(F)cc1Cl"
  endpoint: "Preemergence herbicidal rating AMBEL"
  value.measured: 9.0
- compound: "CCC(C)NS(=O)(=O)NC(=O)c1cc(-n2c(=O)cc(C(F)(F)F)n(C)c2=O)c(F)cc1Cl (stereo not drawn)"
  endpoint: "Preemergence herbicidal rating AMBEL"
  value.measured: 9.0
- compound: "CN(Cc1ccccc1)S(=O)(=O)NC(=O)c1cc(-n2c(=O)cc(C(F)(F)F)n(C)c2=O)c(F)cc1Cl"
  endpoint: "Preemergence herbicidal rating AMBEL"
  value.measured: 9.0
- compound: "CCOC(=O)CN(C)S(N)(=O)=O"
  endpoint: "Preemergence herbicidal rating AMBEL"
  value.measured: 8.9
- compound: "CC(C)N(C(C)C)S(=O)(=O)NC(=O)c1cc(-n2c(=O)cc(C(F)(F)F)n(C)c2=O)c(F)cc1Cl"
  endpoint: "Preemergence herbicidal rating AMBEL"
  value.measured: 9.0
- compound: "CCCNS(=O)(=O)NC(=O)c1cc(-n2c(=O)cc(C(F)(F)F)n(C)c2=O)c(F)cc1Cl"
  endpoint: "Preemergence herbicidal rating AMBEL"
  value.measured: 9.0
- compound: "COc1ccc(CNS(=O)(=O)NC(=O)c2cc(-n3c(=O)cc(C(F)(F)F)n(C)c3=O)c(F)cc2Cl)cc1"
  endpoint: "Preemergence herbicidal rating AMBEL"
  value.measured: 9.0
- compound: "Cn1c(C(F)(F)F)cc(=O)n(-c2cc(C(=O)NS(N)(=O)=O)c(Cl)cc2F)c1=O"
  endpoint: "Preemergence herbicidal rating AMBEL"
  value.measured: 9.0
- compound: "CCN(C)S(=O)(=O)NC(=O)c1cc(-n2c(=O)cc(C(F)(F)F)n(C)c2=O)c(F)cc1Cl"
  endpoint: "Preemergence herbicidal rating AMBEL"
  value.measured: 9.0

Provenance of the data: patent US6689773B2
